System: FGFR2;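 note: KINOMEscan kinase panel screen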
Conditions: concentration: 1 μM,replicates: in singlicate; n = 1
outcome-measure: %Inh (%)
# output: bare number, implied unit %

Reference set (4 entries):
>>> df
                                   compound  outcome_measure  data_value
0  C[C@@H]1CNc2c(sc3ccc4nc(-c5ccncc5)ccc4c23)C(=O)N1             %Inh           0
1  CNC(=O)c1ccccc1Nc1nc(Nc2cccc(CS(C)(=O)=O)c2)ncc1C.O=CO [GSK1520489]             %Inh        99.3
2  Cc1ccc2c(-c3ccnc(Nc4ccc(C(F)(F)F)cc4)n3)cnn2n1 [GW819776]             %Inh           0
3  C[C@@H]1CCN(C(=O)N2CCCC2)C[C@@H]1N(C)c1ncnc2[nH]ccc12             %Inh           9

Problem: Give %Inh for CCN1CCN(CCCC(=O)Nc2n[nH]c3nc(-c4ccc(O)cc4)c(Br)cc23)CC1 [SB-731579]
Result: 0

Problem: Fill in reported %Inh for this entry: COC(=O)c1cccc(NC(=O)NC2CCN(c3ccnc(NCc4ccc(F)cc4)n3)CC2)c1 [GSK1379860]
Result: 27

Problem: Given the compound `O=C(Nc1ccc(Oc2ccc3nc(NC(=O)C4CC4)cn3n2)c(F)c1)c1cccn(-c2ccccc2)c1=O` , write its reported %Inh.
Result: 9

Problem: Hello, please tell me recorded %Inh for this one: `O=C(Nc1ccccc1)c1cccc(Oc2ccc3nccn3n2)c1`
Result: 19
